Assay system PI3Kα (Homo sapiens (Human)); read-out recorded as IC50.
property name: IC50 (nM)

A selection of reference data follows.
{"compound": "COc1ncc(-c2cc(O[C@@H]3CCOC3)c3nc(N)nc(C)c3c2)cc1NS(=O)(=O)c1ccc(F)cc1F", "IC50 (nM)": 0.86}
{"compound": "COc1ncc(-c2cc(OC3CCOC(C)(C)C3)c3nc(N)nc(C)c3c2)cc1NS(=O)(=O)c1ccc(F)cc1F (stereo not drawn)", "IC50 (nM)": 1}
{"compound": "COc1ncc(-c2cc(OC(C)C)c3ncnc(C)c3c2)cc1NS(=O)(=O)c1ccc(F)cc1F", "IC50 (nM)": 2.2}

A: COc1ncc(-c2cc(OC3CCOCC3)c3ncnc(C)c3c2)cc1NS(=O)(=O)c1ccc(F)cc1F
B: COc1ncc(-c2cc(OC(F)F)c3ncnc(C)c3c2)cc1NS(=O)(=O)c1ccc(F)cc1F
C: Cc1ncc(-c2cc(OC3CCOCC3)c3ncnc(C)c3c2)cc1NS(=O)(=O)c1ccc(F)cc1F
# rank by IC50, ascending (min first) Provide the labels, sequenced as the question asks.
A, C, B

Reference source: patent US11534443B2
